targetOrSystem: α-glucosidase (Saccharomyces cerevisiae)
Construct: the yeast form of α-glucosidase, which was extracted from Saccharomyces cerevisiae; purchased Sigma-Aldrich; host or cells: Saccharomyces cerevisiae (extracted)
assayExplanation: Anti-α-glucosidase assay (p-nitrophenyl-α-D-glucopyranoside substrate, absorbance 405 nm)
Assay type: biochemical
conditions: Conc. 30 (unit not given); IC50 determination curve
Inhibation values by entry
Lab note: jot down the number only; don't add units.

Below, 3 molecules whose answers are already recorded.
molecule	number
O=C(Cn1cc(COc2ccc(/C=N/Nc3nnc(-c4ccccc4)c(-c4ccccc4)n3)cc2)nn1)Nc1ccc(Cl)cc1 [Compound 13j]	75.43
Cc1cccc(NC(=O)Cn2cc(COc3ccc(/C=N/Nc4nnc(-c5ccccc5)c(-c5ccccc5)n4)cc3)nn2)c1 [Compound 13c]	80.67
O=C(Cn1cc(COc2ccc(/C=N/Nc3nnc(-c4ccccc4)c(-c4ccccc4)n3)cc2)nn1)Nc1ccccc1F [Compound 13g]	72.24

Incoming: So what does the record say about Inhibation for O=C(Cn1cc(COc2ccc(/C=N/Nc3nnc(-c4ccccc4)c(-c4ccccc4)n3)cc2)nn1)NCCc1ccccc1 [Compound 13n] ?
Outgoing: 84.67

Incoming: So what does the record say about Inhibation for CCc1ccc(NC(=O)Cn2cc(COc3ccc(/C=N/Nc4nnc(-c5ccccc5)c(-c5ccccc5)n4)cc3)nn2)cc1 [Compound 13e] ?
Outgoing: 82.93

Incoming: So what does the record say about Inhibation for O=C(Cn1cc(COc2ccc(/C=N/Nc3nnc(-c4ccccc4)c(-c4ccccc4)n3)cc2)nn1)Nc1cccc(Cl)c1 [Compound 13i] ?
Outgoing: 74.73

Incoming: So what does the record say about Inhibation for Cc1ccc(NC(=O)Cn2cc(COc3ccc(/C=N/Nc4nnc(-c5ccccc5)c(-c5ccccc5)n4)cc3)nn2)c(C)c1 [Compound 13d] ?
Outgoing: 65.17

###

targetOrSystem: α-glucosidase (Saccharomyces cerevisiae, UniProt P53341)
Construct: the yeast form of α-glucosidase, which was extracted from Saccharomyces cerevisiae; purchased Sigma-Aldrich; host or cells: Saccharomyces cerevisiae (extracted)
Sequence (P53341 whole entry): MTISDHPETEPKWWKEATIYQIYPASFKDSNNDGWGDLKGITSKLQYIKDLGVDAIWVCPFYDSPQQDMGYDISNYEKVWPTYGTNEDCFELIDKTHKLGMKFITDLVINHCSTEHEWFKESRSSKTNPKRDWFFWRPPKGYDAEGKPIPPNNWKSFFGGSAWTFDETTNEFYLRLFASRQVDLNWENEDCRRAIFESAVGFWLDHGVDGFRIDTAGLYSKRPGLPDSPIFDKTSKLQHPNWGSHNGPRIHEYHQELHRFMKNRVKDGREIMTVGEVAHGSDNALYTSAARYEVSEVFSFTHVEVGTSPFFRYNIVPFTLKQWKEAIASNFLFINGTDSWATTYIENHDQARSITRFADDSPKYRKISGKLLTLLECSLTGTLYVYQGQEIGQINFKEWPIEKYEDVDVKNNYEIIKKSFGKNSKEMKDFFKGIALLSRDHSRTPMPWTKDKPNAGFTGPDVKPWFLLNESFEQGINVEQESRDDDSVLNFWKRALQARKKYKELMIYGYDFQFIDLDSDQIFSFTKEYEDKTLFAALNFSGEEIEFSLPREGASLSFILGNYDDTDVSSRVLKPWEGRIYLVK
assayExplanation: Anti-α-glucosidase assay (p-nitrophenyl-α-D-glucopyranoside substrate, absorbance 405 nm)
Format: biochemical
conditions: read-out: In (%), inhibition percentage against α-glucosidase
measuredAttribute: inhibition at 750 µM (%)
Provide the reading as a plain figure in %.

molecule	inhibition at 750 µM / %
O=C(Cn1cc(COc2ccc(/C=N/Nc3nnc(-c4ccccc4)c(-c4ccccc4)n3)cc2)nn1)NCc1ccccc1 [Compound 13m]	90

Incoming: So what does the record say about inhibition at 750 µM for O=C(Cn1cc(COc2ccc(/C=N/Nc3nnc(-c4ccccc4)c(-c4ccccc4)n3)cc2)nn1)Nc1ccc(Cl)cc1 [Compound 13j] ?
Outgoing: 83

Incoming: So what does the record say about inhibition at 750 µM for O=C(Cn1cc(COc2ccc(/C=N/Nc3nnc(-c4ccccc4)c(-c4ccccc4)n3)cc2)nn1)Nc1ccc(Br)cc1 [Compound 13k] ?
Outgoing: 69

Incoming: So what does the record say about inhibition at 750 µM for O=C(Cn1cc(COc2ccc(/C=N/Nc3nnc(-c4ccccc4)c(-c4ccccc4)n3)cc2)nn1)Nc1ccccc1 [Compound 13a] ?
Outgoing: 95

Incoming: So what does the record say about inhibition at 750 µM for O=C(Cn1cc(COc2ccc(/C=N/Nc3nnc(-c4ccccc4)c(-c4ccccc4)n3)cc2)nn1)Nc1ccccc1F [Compound 13g] ?
Outgoing: 79

Incoming: So what does the record say about inhibition at 750 µM for COc1ccc(NC(=O)Cn2cc(COc3ccc(/C=N/Nc4nnc(-c5ccccc5)c(-c5ccccc5)n4)cc3)nn2)cc1 [Compound 13f] ?
Outgoing: 100

Incoming: So what does the record say about inhibition at 750 µM for O=C(Cn1cc(COc2ccc(/C=N/Nc3nnc(-c4ccccc4)c(-c4ccccc4)n3)cc2)nn1)Nc1cccc(Cl)c1 [Compound 13i] ?
Outgoing: 100

The measured values listed here are drawn from paper PMC12523282.
